// data source = ChEMBL document CHEMBL4825722

assay: AUC (0 to 24 hrs) in C57BL/6 mouse plasma at 2.32 mg/kg; type: ADME, organism-based; set-up: time < 24 hr, dose 2.32 mg/kg

molecule: C[C@@H](c1ccc2ccc(O[C@H]3CC[C@@H](C(F)(F)F)CC3)c(C(F)(F)F)c2c1)N1C2CCC1CC(C(=O)O)C2 (stereo partly specified)
AUC(0-t) at 24 h [ng·h/mL]: 6170

====

assay: Tmax in C57BL/6 mouse plasma at 10 mg/kg, po; type: ADME, organism-based
measurement type: Tmax (h)

compound: C[C@@H](c1ccc2ccc(O[C@H]3CC[C@@H](C(F)(F)F)CC3)c(C(F)(F)F)c2c1)N1C2CCC1CC(C(=O)O)C2 (stereo partly specified)
meas value: 3

====

molecular target: hERG (KCNH2) (Homo sapiens); test: Inhibition of human ERG at 10 uM by automated patch-clamp assay relative to control
Sequence (Q12809 whole entry): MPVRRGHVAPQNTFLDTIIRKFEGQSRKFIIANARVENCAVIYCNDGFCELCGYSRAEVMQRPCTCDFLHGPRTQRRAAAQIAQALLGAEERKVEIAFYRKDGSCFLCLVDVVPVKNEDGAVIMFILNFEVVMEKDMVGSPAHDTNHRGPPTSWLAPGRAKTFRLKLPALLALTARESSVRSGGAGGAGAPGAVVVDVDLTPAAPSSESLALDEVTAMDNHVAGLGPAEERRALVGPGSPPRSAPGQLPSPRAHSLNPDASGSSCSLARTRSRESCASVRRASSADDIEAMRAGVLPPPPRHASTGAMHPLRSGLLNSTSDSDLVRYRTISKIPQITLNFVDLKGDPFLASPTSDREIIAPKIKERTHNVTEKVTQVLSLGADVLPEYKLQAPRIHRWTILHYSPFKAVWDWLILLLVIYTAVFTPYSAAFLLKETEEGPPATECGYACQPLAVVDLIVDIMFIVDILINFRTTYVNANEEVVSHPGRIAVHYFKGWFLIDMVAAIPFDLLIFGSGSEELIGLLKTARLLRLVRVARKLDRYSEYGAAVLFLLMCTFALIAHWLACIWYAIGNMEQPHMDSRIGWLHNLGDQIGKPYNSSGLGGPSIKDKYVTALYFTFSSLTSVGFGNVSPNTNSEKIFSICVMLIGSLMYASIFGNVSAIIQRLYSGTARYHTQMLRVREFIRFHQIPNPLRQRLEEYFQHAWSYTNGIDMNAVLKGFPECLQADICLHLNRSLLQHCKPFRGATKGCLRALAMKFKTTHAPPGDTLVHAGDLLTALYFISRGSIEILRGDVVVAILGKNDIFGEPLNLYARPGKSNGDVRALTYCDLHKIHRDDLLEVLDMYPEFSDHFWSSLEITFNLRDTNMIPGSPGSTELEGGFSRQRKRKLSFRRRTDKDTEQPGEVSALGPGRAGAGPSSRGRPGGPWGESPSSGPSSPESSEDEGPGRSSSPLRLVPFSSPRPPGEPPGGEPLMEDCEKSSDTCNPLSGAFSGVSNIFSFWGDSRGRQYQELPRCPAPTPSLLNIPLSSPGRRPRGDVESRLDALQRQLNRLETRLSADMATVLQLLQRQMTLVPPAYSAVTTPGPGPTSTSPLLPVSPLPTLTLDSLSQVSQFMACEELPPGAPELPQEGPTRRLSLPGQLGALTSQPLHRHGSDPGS

molecule: C[C@H](c1ccc2ccc(O[C@H]3CC[C@@H](C)CC3)c(C(F)(F)F)c2c1)N1C2CCCC1CC(C(=O)O)C2 (stereo partly drawn)
inhibition at 10 µM: 29.6%
--
molecule: C[C@H]1CC[C@@H](Oc2ccc3ccc(CN4C5CCC4CC(C(=O)O)C5)cc3c2C(F)(F)F)CC1 (stereo partly drawn)
inhibition at 10 µM: 65%
--
molecule: O=C(O)C1CCN(Cc2ccc3c(C(F)(F)F)c(O[C@H]4CC[C@@H](C(F)(F)F)CC4)ccc3c2)CC1
inhibition at 10 µM: 86.8%

====

biological target: Cytochrome P450 2D6 (Homo sapiens)
Sequence (P10635 whole entry): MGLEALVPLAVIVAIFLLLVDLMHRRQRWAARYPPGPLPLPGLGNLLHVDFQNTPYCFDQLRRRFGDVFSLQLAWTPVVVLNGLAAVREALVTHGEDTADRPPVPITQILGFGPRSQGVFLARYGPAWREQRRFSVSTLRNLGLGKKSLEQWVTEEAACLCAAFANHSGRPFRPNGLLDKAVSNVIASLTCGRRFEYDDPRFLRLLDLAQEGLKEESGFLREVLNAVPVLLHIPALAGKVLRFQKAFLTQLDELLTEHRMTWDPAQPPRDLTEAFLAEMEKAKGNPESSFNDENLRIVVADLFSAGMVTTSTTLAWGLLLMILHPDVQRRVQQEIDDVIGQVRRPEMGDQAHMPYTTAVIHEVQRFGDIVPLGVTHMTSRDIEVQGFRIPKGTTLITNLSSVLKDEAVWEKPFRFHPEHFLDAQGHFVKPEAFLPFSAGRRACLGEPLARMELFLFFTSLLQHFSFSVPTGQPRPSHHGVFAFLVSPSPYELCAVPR
pIC50: −log10 of the molar value.

compound: C[C@@H](c1ccc2ccc(O[C@H]3CC[C@@H](C(F)(F)F)CC3)c(C(F)(F)F)c2c1)N1C2CCC1CC(C(=O)O)C2 (stereo partly specified)
pIC50: < 5.00

====

Biological target: Sphingosine 1-phosphate receptor 4 (Homo sapiens, UniProt O95977)
Sequence (O95977 whole entry): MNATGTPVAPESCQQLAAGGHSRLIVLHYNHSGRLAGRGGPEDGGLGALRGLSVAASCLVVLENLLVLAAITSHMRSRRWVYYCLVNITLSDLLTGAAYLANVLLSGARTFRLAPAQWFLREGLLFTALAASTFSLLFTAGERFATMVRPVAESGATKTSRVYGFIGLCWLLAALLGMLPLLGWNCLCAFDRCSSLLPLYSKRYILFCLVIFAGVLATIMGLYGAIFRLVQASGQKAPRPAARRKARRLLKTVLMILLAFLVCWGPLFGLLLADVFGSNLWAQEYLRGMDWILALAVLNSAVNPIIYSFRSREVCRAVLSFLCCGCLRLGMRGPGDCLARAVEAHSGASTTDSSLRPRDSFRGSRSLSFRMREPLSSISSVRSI
Test: Inhibition of S1P4 (unknown origin)

molecule: C[C@@H](c1ccc2ccc(O[C@H]3CC[C@@H](C(F)(F)F)CC3)c(C(F)(F)F)c2c1)N1C2CCC1CC(C(=O)O)C2 (stereo partly specified)
IC50: > 10 µM

====

test: Clearance in C57BL/6 mouse plasma at 2.32 mg/kg; type: ADME, organism-based

compound: C[C@@H](c1ccc2ccc(O[C@H]3CC[C@@H](C(F)(F)F)CC3)c(C(F)(F)F)c2c1)N1C2CCC1CC(C(=O)O)C2 (stereo partly specified)
unit spec: mL/min/kg
clearance: 6.09

====

molecular target: UniProt:Q99500
Sequence (Q99500 whole entry): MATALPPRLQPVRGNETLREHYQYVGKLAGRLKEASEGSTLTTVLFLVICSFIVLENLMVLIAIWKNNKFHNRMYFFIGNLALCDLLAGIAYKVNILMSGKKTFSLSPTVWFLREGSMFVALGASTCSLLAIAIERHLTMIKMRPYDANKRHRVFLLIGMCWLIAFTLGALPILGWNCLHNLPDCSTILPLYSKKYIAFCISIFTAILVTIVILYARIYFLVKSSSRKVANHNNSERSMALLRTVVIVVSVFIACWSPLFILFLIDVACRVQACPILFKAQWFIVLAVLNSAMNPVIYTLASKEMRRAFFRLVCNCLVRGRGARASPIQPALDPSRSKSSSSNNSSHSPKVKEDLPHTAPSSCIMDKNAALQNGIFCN
measurement type: IC50

compound: C[C@@H](c1ccc2ccc(O[C@H]3CC[C@@H](C(F)(F)F)CC3)c(C(F)(F)F)c2c1)N1C2CCC1CC(C(=O)O)C2 (stereo partly specified)
tested on: UniProt:Q99500
meas value: > 10 µM

====

assay: Oral bioavailability in rat at 10 mg/kg; format: ADME, organism-based; settings: in vivo
measurement type: bioavailability

compound: C[C@@H](c1ccc2ccc(O[C@H]3CC[C@@H](C(F)(F)F)CC3)c(C(F)(F)F)c2c1)N1C2CCC1CC(C(=O)O)C2 (stereo partly specified)
meas value: 66%

====

target: Lysophosphatidic acid receptor 2 (Homo sapiens)
Sequence (Q9HBW0 whole entry): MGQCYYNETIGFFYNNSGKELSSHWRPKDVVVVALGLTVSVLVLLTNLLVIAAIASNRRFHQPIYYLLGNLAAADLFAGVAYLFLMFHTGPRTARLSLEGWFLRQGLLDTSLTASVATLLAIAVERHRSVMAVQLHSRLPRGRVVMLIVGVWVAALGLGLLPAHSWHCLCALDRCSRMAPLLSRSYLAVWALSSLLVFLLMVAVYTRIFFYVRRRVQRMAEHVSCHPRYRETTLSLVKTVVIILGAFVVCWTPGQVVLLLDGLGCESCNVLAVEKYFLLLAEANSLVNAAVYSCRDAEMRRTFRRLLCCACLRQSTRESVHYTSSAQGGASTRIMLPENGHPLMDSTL
pIC50: −log10 of the molar value.

molecule: C[C@@H](c1ccc2ccc(O[C@H]3CC[C@@H](C(F)(F)F)CC3)c(C(F)(F)F)c2c1)N1C2CCC1CC(C(=O)O)C2 (stereo partly specified)
pIC50: < 5.00

====

assay: Drug concentration in Sprague-Dawley rat at 3 mg/kg, po after 6 hrs by LC-MS/MS analysis; assay type: ADME, organism-based; settings: in vivo, read-out: Drug uptake

compound: C[C@@H](c1ccc2ccc(O[C@H]3CC[C@@H](C(F)(F)F)CC3)c(C(F)(F)F)c2c1)N1C2CCC1CC(C(=O)O)C2 (stereo partly specified)
concentration at 6 h: 42 ng/mL

====

test: Clearance in dog at 0.2 mg/kg, iv; format: ADME, organism-based, Canis lupus familiaris; settings: in vivo

compound: C[C@@H](c1ccc2ccc(O[C@H]3CC[C@@H](C(F)(F)F)CC3)c(C(F)(F)F)c2c1)N1C2CCC1CC(C(=O)O)C2 (stereo partly specified)
unit spec: mL/min/kg
clearance: 1.7

====

test: Apparent permeability across apical to basolateral side in human Caco-2 cells incubated for 120 mins by lucifer yellow based LC-MS/MS analysis

compound: C[C@@H](c1ccc2ccc(O[C@H]3CC[C@@H](C(F)(F)F)CC3)c(C(F)(F)F)c2c1)N1C2CCC1CC(C(=O)O)C2 (stereo partly specified)
Papp A→B at 2 h / ×10⁻⁶ cm/s: 16.8

====

assay: Drug concentration in Sprague-Dawley rat at 0.1 mg/kg, po after 6 hrs by LC-MS/MS analysis; assay type: ADME, organism-based; details: in vivo, read-out: Drug uptake

compound: C[C@@H](c1ccc2ccc(O[C@H]3CC[C@@H](C(F)(F)F)CC3)c(C(F)(F)F)c2c1)N1C2CCC1CC(C(=O)O)C2 (stereo partly specified)
concentration at 6 h (ng/mL): 0.95

====

Attribute: inhibition at 1 µM
target: hERG (KCNH2) (Homo sapiens); assay: Inhibition of human ERG at 1 uM by automated patch-clamp assay relative to control

compound: C[C@@H](c1ccc2ccc(O[C@H]3CC[C@@H](C(F)(F)F)CC3)c(C(F)(F)F)c2c1)N1C2CCC1CC(C(=O)O)C2 (some centres not stated)
inhibition at 1 µM (%): 1.4
//
compound: C[C@H]1CC[C@@H](Oc2ccc3cc(CN4C5CCCC4CC(C(=O)O)C5)ccc3c2C(F)(F)F)CC1 (some centres not stated)
inhibition at 1 µM (%): 1.6
//
compound: C[C@H]1CC[C@@H](Oc2ccc3ccc(CN4C5CCC4CC(C(=O)O)C5)cc3c2C(F)(F)F)CC1 (some centres not stated)
inhibition at 1 µM (%): 6
//
compound: O=C(O)C1CCN(Cc2ccc3c(C(F)(F)F)c(O[C@H]4CC[C@@H](C(F)(F)F)CC4)ccc3c2)CC1
inhibition at 1 µM (%): 6.6
//
compound: C[C@H](c1ccc2ccc(O[C@H]3CC[C@@H](C)CC3)c(C(F)(F)F)c2c1)N1C2CCCC1CC(C(=O)O)C2 (some centres not stated)
inhibition at 1 µM (%): 8.4
//
compound: C[C@@H](c1ccc2ccc(O[C@H]3CC[C@@H](C)CC3)c(C(F)(F)F)c2c1)N1C2CCCC1CC(C(=O)O)C2 (some centres not stated)
inhibition at 1 µM (%): 4.6
//
compound: C[C@H]1CC[C@@H](Oc2ccc3ccc(CN4C5CCCC4CC(C(=O)O)C5)cc3c2C(F)(F)F)CC1 (some centres not stated)
inhibition at 1 µM (%): 12

====

assay: Oral bioavailability in C57BL/6 mouse at 10 mg/kg; format: ADME, organism-based; conditions: in vivo

compound: C[C@@H](c1ccc2ccc(O[C@H]3CC[C@@H](C(F)(F)F)CC3)c(C(F)(F)F)c2c1)N1C2CCC1CC(C(=O)O)C2 (stereo partly specified)
unit spec: %
bioavailability: 51

====

test: AUC (0 to 24 hrs) in C57BL/6 mouse plasma at 10 mg/kg, po; type: ADME, organism-based; parameters: time < 24 hr, route oral, dose 10 mg/kg

molecule: C[C@@H](c1ccc2ccc(O[C@H]3CC[C@@H](C(F)(F)F)CC3)c(C(F)(F)F)c2c1)N1C2CCC1CC(C(=O)O)C2 (stereo partly specified)
AUC(0-t) at 24 h: 12200 ng·h/mL

====

assay: Solubility of the compound at pH 7.0 by shake flask method; settings: buffer

molecule: C[C@@H](c1ccc2ccc(O[C@H]3CC[C@@H](C(F)(F)F)CC3)c(C(F)(F)F)c2c1)N1C2CCC1CC(C(=O)O)C2 (stereo partly specified)
solubility thermodynamic (µg/mL): 73.2

====

assay: AUC (0 to 24 hrs) in rat at 1 mg/kg, iv; type: ADME, organism-based; design: time < 24 hr, route intravenous, dose 1 mg/kg; conditions: in vivo
measurement type: AUC(0-t) at 24 h (ng·h/mL)

molecule: C[C@@H](c1ccc2ccc(O[C@H]3CC[C@@H](C(F)(F)F)CC3)c(C(F)(F)F)c2c1)N1C2CCC1CC(C(=O)O)C2 (stereo partly specified)
meas value: 594
